Where do these numbers come from? They come from ChEMBL document CHEMBL1134249.

# test name: Solubility at pH 7.4
# Format: physicochemical
# condition set: buffer
The threshold is inclusive: solubility of exactly 5 µg/mL counts as Criterion met; values below receive Criterion not met.

# input Has O=C(Nc1cc(C(F)(F)F)cc(C(F)(F)F)c1)Nn1cnnc1 a recorded solubility greater than or equal to 5 µg/mL?
# output Criterion met

# input Is reported solubility greater than or equal to 5 µg/mL here: CC(C)c1nc2ccccc2c(=O)n1NC(=O)Nc1ccc(C(F)(F)F)cc1
# output Criterion met

# input Hi team, for CCc1nc2ccccc2c(=O)n1NC(=O)Nc1cc(C(F)(F)F)cc(C(F)(F)F)c1 , is the recorded solubility at or above 5 µg/mL?
# output Criterion met

New cases:
# input API: above_or_equal(metric=solubility, cutoff=5 µg/mL) for item O=C(NNC(=O)Nc1cc(C(F)(F)F)cc(C(F)(F)F)c1)Nc1cc(C(F)(F)F)cc(C(F)(F)F)c1
# output Criterion not met

# input Check this molecule for solubility at or above 5 µg/mL: O=C(NNc1nccc(C(F)(F)F)n1)Nc1cc(C(F)(F)F)cc(C(F)(F)F)c1
# output Criterion not met

# input Record CC(C)c1nc2ccccc2c(=O)n1NC(=O)Nc1cc(C(F)(F)F)cc(C(F)(F)F)c1 ; criterion: solubility no lower than 5 µg/mL. Met?
# output Criterion not met
